System Tested: cGMP-dependent 3',5'-cyclic phosphodiesterase (Homo sapiens, UniProt O00408)
Sequence (O00408 whole entry): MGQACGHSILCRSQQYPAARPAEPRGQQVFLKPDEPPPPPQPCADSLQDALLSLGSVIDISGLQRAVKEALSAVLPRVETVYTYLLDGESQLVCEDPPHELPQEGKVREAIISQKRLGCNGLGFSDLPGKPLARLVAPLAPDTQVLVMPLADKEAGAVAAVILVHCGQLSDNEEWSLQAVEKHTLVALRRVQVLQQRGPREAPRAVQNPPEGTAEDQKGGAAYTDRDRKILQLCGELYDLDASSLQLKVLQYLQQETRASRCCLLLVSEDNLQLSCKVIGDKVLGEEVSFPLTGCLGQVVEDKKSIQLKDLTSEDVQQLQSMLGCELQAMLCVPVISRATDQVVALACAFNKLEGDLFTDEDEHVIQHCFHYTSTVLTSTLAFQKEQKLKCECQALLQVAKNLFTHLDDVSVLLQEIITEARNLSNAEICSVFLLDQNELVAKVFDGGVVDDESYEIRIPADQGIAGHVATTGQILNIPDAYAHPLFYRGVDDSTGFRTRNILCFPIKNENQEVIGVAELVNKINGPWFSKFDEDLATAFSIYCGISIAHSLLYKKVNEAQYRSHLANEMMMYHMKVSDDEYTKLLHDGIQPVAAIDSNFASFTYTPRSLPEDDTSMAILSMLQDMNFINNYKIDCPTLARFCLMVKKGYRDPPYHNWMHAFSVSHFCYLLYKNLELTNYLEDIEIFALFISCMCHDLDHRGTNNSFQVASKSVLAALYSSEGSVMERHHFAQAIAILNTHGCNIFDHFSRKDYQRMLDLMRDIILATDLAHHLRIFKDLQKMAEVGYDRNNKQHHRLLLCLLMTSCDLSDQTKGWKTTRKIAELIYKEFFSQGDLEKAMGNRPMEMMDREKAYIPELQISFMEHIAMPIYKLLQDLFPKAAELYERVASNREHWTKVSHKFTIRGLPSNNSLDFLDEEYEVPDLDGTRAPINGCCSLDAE
pIC50: −log10 of the molar value.
Test Readout: pIC50

1) Cn1c(=O)c2c(ncn2CCC(=O)NNC(=O)c2cc3nccc(-c4ccc(OC(F)F)c(OCC5CC5)c4)n3n2)n(C)c1=O = < 4.30

----------
System Tested: High affinity cAMP-specific and IBMX-insensitive 3',5'-cyclic phosphodiesterase 8A (Homo sapiens)
Sequence (O60658 whole entry): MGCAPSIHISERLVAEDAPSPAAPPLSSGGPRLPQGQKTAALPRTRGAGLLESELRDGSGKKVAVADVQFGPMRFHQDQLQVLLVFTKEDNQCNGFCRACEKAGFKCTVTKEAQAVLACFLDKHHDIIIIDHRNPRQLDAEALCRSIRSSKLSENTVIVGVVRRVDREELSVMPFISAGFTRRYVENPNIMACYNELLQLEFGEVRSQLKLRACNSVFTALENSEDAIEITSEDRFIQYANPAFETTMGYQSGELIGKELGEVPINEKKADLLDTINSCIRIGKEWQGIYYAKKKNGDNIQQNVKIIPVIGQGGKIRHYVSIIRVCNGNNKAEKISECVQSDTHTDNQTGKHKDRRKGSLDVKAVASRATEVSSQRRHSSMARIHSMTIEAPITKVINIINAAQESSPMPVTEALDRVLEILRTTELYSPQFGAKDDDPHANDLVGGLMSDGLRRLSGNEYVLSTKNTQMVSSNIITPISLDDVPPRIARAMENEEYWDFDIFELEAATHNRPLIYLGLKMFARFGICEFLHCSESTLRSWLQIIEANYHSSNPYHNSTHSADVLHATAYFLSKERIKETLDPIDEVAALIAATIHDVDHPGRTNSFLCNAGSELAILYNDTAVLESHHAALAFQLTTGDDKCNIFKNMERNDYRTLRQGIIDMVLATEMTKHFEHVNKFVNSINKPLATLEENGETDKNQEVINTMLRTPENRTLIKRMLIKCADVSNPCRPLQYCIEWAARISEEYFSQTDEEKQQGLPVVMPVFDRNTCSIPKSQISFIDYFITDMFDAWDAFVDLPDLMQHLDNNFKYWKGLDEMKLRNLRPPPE
pIC50: −log10 of the molar value.
Test Readout: pIC50

1) Cn1c(=O)c2c(ncn2CCC(=O)NNC(=O)c2cc3nccc(-c4ccc(OC(F)F)c(OCC5CC5)c4)n3n2)n(C)c1=O = 5.77

----------
System Tested: cGMP-inhibited 3',5'-cyclic phosphodiesterase 3A (Homo sapiens)
Sequence (Q14432 whole entry): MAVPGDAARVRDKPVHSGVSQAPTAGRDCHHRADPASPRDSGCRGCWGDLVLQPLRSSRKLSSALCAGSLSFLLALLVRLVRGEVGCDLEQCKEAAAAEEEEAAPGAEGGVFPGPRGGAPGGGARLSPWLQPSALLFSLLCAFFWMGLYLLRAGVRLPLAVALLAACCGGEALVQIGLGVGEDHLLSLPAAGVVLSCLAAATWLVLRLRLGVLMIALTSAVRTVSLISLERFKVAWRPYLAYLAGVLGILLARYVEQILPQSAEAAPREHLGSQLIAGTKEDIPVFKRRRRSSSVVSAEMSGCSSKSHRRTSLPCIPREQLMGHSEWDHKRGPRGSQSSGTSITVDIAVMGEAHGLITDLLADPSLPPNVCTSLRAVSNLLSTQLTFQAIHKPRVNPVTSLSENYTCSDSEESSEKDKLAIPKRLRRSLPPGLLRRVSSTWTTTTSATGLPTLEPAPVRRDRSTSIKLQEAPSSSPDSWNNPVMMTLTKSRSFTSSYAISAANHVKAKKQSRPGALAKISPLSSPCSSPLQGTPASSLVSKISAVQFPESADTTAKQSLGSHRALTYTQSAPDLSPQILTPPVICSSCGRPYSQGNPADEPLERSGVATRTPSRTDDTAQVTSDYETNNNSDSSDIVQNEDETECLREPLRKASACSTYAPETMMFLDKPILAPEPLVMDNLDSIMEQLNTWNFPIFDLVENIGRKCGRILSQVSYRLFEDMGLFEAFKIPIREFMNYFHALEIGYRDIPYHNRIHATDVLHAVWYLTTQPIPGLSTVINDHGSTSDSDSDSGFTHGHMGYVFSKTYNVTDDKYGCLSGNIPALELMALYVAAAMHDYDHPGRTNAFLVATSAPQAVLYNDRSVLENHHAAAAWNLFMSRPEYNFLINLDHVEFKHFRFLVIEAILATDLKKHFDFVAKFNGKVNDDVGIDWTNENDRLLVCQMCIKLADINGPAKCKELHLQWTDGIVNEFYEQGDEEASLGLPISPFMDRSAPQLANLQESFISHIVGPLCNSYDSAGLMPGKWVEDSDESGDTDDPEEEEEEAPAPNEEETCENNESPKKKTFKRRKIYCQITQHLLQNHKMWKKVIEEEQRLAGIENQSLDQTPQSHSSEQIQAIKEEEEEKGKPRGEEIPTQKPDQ
Procedure Details: Inhibition of PDE3A (unknown origin)
Test Readout: IC50

1. Cn1c(=O)c2c(ncn2CCC(=O)NNC(=O)c2cc3nccc(-c4ccc(OC(F)F)c(OCC5CC5)c4)n3n2)n(C)c1=O = > 50 µM
